- experimentalProtocol: yeast display, Sf9 membrane polyspecificity reagent, FACS + sequencing; frameworks hold sequencing errors
measureName: polyreactivity (PSR sort gate)

QVQLVESGGGLVHAGGFLRLSCAASGRIFRWNAMGWYRQAPGKERELVAAISWNGGRTYYADSVKGRFTISRDNAKNRVYFQMNSLKPEDTAVYYCAAPHSVPDLHSGDYWGQGTQVTVSS : low polyreactivity
QVQLVESGGGLVQAGGSLRLSCAASGRIFVYYAMGWYRQAPGKERELVAAISSSGGSTYYADSVKGRFTISRDNAKNTVYLQMNSLKPEDTAVYYCNAVTYFSLSYPRHDYWGQGTQVTVSS : high polyreactivity
QVQLVESGGGLVQAGGSLRLSCAASGFIFSRYAMGWYRQAPGKERELVAAISIGGSTYYADSVKGRFTISRDNAKNTVYLQMNSLKPEDTAVYDCAVDYRHSSSWNAGPWEMYYWGQGTQVTVSS : low polyreactivity
QVQLVESGGGLVQAGGSLRLSCAASGLTFKANAMGWYRQAPGKERELVAAITWSGTSTYYADSVKGRFTISRDNAKNTVYLQMNSLKPEDTAVYYCNKPYDVWYHDYDYWGQGTQVTVSS : low polyreactivity
QVQLVESGGGLVQAGGSLRLSCAAYGYTFRGYAMGRYRQAPGKEREFVAAINWSDGSTYYADSVKGRFTISRDNAKNTVYLQMNSLKPEDTAVYYCNADQYYRFPDNYLGQGTQVTVSS : low polyreactivity

Read the next record carefully.
Entry under review: QVQLVESGGGLVQAGGSLRLSCAASGFTFSWYVMGWYRQAPGKERELVATITNRGGSTYYADSVKGRFTISRDNAKNTVYLQMNSLKPEDTAVYYCAARNYGKYRTNDYWGQGTQVTVSS . Reported polyreactivity (PSR sort gate)?
high polyreactivity

====

- experimentalProtocol: yeast display, Sf9 membrane polyspecificity reagent, FACS + sequencing; frameworks hold sequencing errors
measureName: polyreactivity (PSR sort gate)

QDQHVESGGGLDQAGGSLRLSCAASGRTIRSYAMGGYRPAPRKESELVAAISSRGGNTYYADSVKGRFTISRDNAKYTVYLQMNSLKPEDTAVYYSNRVRYGVPLIVGDDYWGQGTQVTVSS : high polyreactivity
QVQLVESGGGLVQAGGSLRLSCAASGITFPYYGMGWYRQAPGKERELVAAISRGGRTNYADSVKGRFTISRDNAKNTVYLQMNSLKPEDTAVYYCNTRTWSVFAKSDYWGQGTQVTVSS : high polyreactivity

====

- experimentalProtocol: yeast display, Sf9 membrane polyspecificity reagent, FACS + sequencing; frameworks hold sequencing errors
measureName: polyreactivity (PSR sort gate)

Example entries begin here.
QVQLVESGGGLVQAGGSLRLSCAASGRIFGGYAMGWYRQAPGKERELVAAISNGGSTYYADSVKGRFTISRDNAKNTVYLQMNSLKPEDTAVYYCAARWNWTGYRYDHWGQGTQVTVSS : low polyreactivity
QVQLVESGGGLVQAGGSLRLSCAASGFTFTVYAMGWYRQAPGKERELVAAISGIGGSTYYADSVKGRFTISRDNAKNTVYLQMNSLKPEDTAVYYCNAVSGDSGDYWGQGTQVTVSS : low polyreactivity
QVQLVESGGGLVQAGGSLRLSCAASGITFYPYAMGWYSQAPGKEWELVADITWSGGSTYYADSVKGRFTISRDNAKNTVYLQMNSLKPEDSAVYYCNRKSYRLRSKVRGQYLLGYDWGQGTQVTVSS : high polyreactivity
QVQLVESGGGLVQAGGSLRLSCAASGRIFTNYAMGWYRQAPGKEREFVAAISWSDGSTYYADSVKGRFTISRDNAKNTVYLQMNSLKPEDTAVYYCATEGTYGTFYSYRHFYYWGQGTQVTVSS : high polyreactivity

Read the next record carefully.
Entry under review: QVQLVESGGGLVQAGGSLRLSCAASGSTLISYTMGWYRQAPGKERELVAAITSAVTTYYADSVKGRFTISRDNAKNTVYLQMNSLIPEDTAVYDCNAVPDTRSGELDYWGQGTQVTVSS . Reported polyreactivity (PSR sort gate)?
low polyreactivity

====

- experimentalProtocol: yeast display, Sf9 membrane polyspecificity reagent, FACS + sequencing; frameworks hold sequencing errors
measureName: polyreactivity (PSR sort gate)

Example entries begin here.
QVQLVESGGGLVQAGGSLRLSCAASGSTLVLNAMGWYRQAPGKERELVAAISRGGGSTSYADSVKGRFTISRDNAKNTVYLQMNSLKPEDTAVYYCNAYTYYHANHEQGFGYWGQGTQVTVSS : low polyreactivity
QVQLVESRGGLVQAGGSLRLRCAASGYIYYQYAMGWSRHAPGKETALVGAISLSGGMTYYADSVKGRFTISRDNAKNTVYLQMNSLKPEETGVYFCNAQSRVWCKVYYWGQGTQVTVSS : high polyreactivity
QVQLVESGGGIVQAGGSLRLTCAASGSTFEIYAMGWYRQAPGKERELVAAISSGGSTNYADSVKGRFTISRDNAKNTVYLQMNSLKPDDTAVYDCAAVLYSRLYWYRLDYWGQGTQVTVSS : low polyreactivity
QVQLVESGGGLVQAGGSLRLSCAASGFTFYSNAMGWSRQAPGKERELVATIRYRGGSTYADSVKGRFTISRDNAKNTVYLQMNSLKPEDTAVYYCAARKYRSFRQRTGDYWGQGTQVTVSS : high polyreactivity
QVQLVESGGGLVQAGGSLRLSCAASGRIFDDYAMGWYRPAPGKERELVAAISSSGGSTYYADSLKGRFTISRDNAKNTVYLQINSLKPEDTAVYFCAASSFRSYYSGKYDYWGQGTQVTVSS : high polyreactivity
QGQLVESGGALVQAGGTLRLSCAASGIIFSGNGMGWYRQAPGNVRELVAAITAGAGTNYADSVKGRFTISRDNAKNSVYLQMHSLKPEDPGVYYCAVDGRSVPAWWPRFDYWGQGTQVTVSS : low polyreactivity
QVQLVESGGGIVQAGGSLPLSCAASGIIFSVNAMGWYRQAPGKERELVAAITYSGGSTYYADSVKGRYTISRDNAKNTVYLQMNSLKPEVTAVYYCAAETYSSGEWYDYWGQGTQVTVSS : high polyreactivity
QVQLVESGGGLVQAGGRLRLSCAASGRTFLRYAMGWYRQAPGKERELVAAISVSGGNTYYADSVKGRFTISRDNAKNTVYLQMNSLKPEDTAVYYCNKARLAAVFSYPYGYWGQGTQVTVSS : low polyreactivity

Entry under review: QVQLVESGGGLVQAGGSLRLSCAASGYIFIRNAMGWYRQAPGKERELVAAISWTGGSTYYADSVKGRFTISRDNAKNTVYLQMNSLKPEDTAVYYCNKYYRAWLLWDYGYWGQGTQVTVSS . Reported polyreactivity (PSR sort gate)?
high polyreactivity

Entry under review: QVQLVESGGGLVQAGGSLRLSCAASGSIFKTNAMGWYRQAPGKERELVAGISNGGSTNYADSVKGRFTISRDNAKNTVYLQMNSLKPEDTAVYYCATDFAVTKMEYWGQGTQVTVSS . Reported polyreactivity (PSR sort gate)?
low polyreactivity

Entry under review: QVQLVESGGGLVQAGFSLRLSCAASGSIFFIYDKGWYRQAPGKERELVADITSGGGSTFYADSVKGRFTISRDNAKNTVYLQMNSLKPEDTAVYYCATDDHDQPGGQLYISEVNYWGQGTQVTVSS . Reported polyreactivity (PSR sort gate)?
low polyreactivity

====

- experimentalProtocol: yeast display, Sf9 membrane polyspecificity reagent, FACS + sequencing; frameworks hold sequencing errors
measureName: polyreactivity (PSR sort gate)

Example entries begin here.
QVQLVESGGGLVQAGGSLRLSCAASGSTFRKYAMGWYRQAPGKEREFVAAITWSTGTTYYADSVKGRFTISRDNAKNTVYLQMNSLIPEDTAVYYCAADSQPPHELYESIEHESWGQGTQVTVSS : low polyreactivity
QVQLVESGGGLVQAGGSLRLSCAASGYTIYSYAMGWYRQAPGKERELVAAITESGARTYYADSVKGRFTISRDNAKNTVYLLMNSLKPEDSAVYYCAADYAWPLRVTGDYWGQGTQVTVSS : low polyreactivity
QVQLVESGGGLVQAGGSLRLSCAASGITFEVYAMGWYRQAPGKERELVAVITSVGSTNYADSVKGRFTISRDNAKNTVYLQMNSLKPEDTAVYYCASEKWTVRRFNPYTYYRYDYWGQGTQVTVSS : low polyreactivity
QVQLVESWGGLVQAGGSLRLSCAASGLPSKLMLMVWYRQAPGKERELVAAISSSGGRTYYADSVKGRFTISRDNAKITVYLQMNSLKPEDTAVYYCAAYFPRTLFEFGYWGQGNQVTVSS : high polyreactivity
QVQLVESGGGLVQAGGSLRLSCAASGRIFNRYAMGWYRQAPGKEREFVAGITWNGGSTYYADSVKGRFTISRDNAKNTVYLQMNSLKPEDTAVYYCAATHYYYGTSRYDYWGQGTQVTVSS : high polyreactivity

Entry under review: QVQLVESGGGLVQAGGSLRLSCAASGSTFIRNAMGWYRQAPGKERELVAAITTDGSTDYADSVKGRFTISRDNAKNTVYLQMNSLKPEDTAVDYCNAEYRLDALSYDYLGQGTQVTVSS . Reported polyreactivity (PSR sort gate)?
low polyreactivity

Entry under review: QVQLVESGGGLVQAGGSLRLSCAASGSTFDIYAMGWYRQAPGKERELVAVISGGDGSTYYADSVKGRFTISRDNAKNTVYLQMNSLKPEDTAVYFCAADYISPGYWDGEYDCWGQGTQVTVSS . Reported polyreactivity (PSR sort gate)?
low polyreactivity

Entry under review: QVQLVESGGGLVQAGGSLRLSCAASGFIFNFYAMGWYRQAPGKERELVAAISRNGGSTYYADSVKGRFTISRDNAKNTVYLQMNSLKPEDTAVYYCNAVGSYGDFGYWGQGTQVTVSS . Reported polyreactivity (PSR sort gate)?
high polyreactivity

Entry under review: QVQLVESGGGLVEAGGSLRLSCADSGRTFGSYTMGWYRQAPGKEREWVAAITSGGRTNYADSVKGRFTISRDNAKNTVYLQMNSLKPEDTAVYYCAPGWRGGRYRYFAYDYWGQGTQVTVSS . Reported polyreactivity (PSR sort gate)?
high polyreactivity

Entry under review: QVQLQESGGGLVQAGGSLRLSCAASGTNFYKDDMGWYRQAPGKEREFVAGIDRGGTTNCAGSVKGRFTISRDNAKNTVYLQMISLKPEDTAVYYCAAYYPDIYPFIYRGQGTQVTVSS . Reported polyreactivity (PSR sort gate)?
high polyreactivity

Entry under review: QVQLVESVGGLVQAGGSLRLSCAASGSTIRYYAIAWYRQAPGKERELVAAITSSGGRTYYADSVKGRFTISRDYAKNTVYLQMNSLKPEDTAVYYCAAYAYYHTGDDYWGQGTQVTVSS . Reported polyreactivity (PSR sort gate)?
high polyreactivity
